All values here come from PubChem BioAssay AID1963444.

system: HSSY-II complex spheroid growth, percent test/control; assay: Anticancer human tumor HSSY-II cell line growth inhibition [Asc]; details: second compound 1 µM; first compound 10 µM; hits give low values;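 also: spheroids exposed to drug for 7 days before reading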
Consider the following compounds; for each one, report its viability, T/C.
One number for each entry, in %.

Look over these answered cases.
O=C(c1cc(Cc2n[nH]c(=O)c3ccccc23)ccc1F)N1CCN(C(=O)C2CC2)CC1 + CNC(C)C(=O)NC1CN(S(=O)(=O)c2cccc(S(=O)(=O)N3CCC4CCC(C(=O)NC(c5ccccc5)c5ccccc5)N4C(=O)C(NC(=O)C(C)NC)C3)c2)CCC2CCC(C(=O)NC(c3ccccc3)c3ccccc3)N2C1=O	5.51
C=CC(=O)N1CCN(c2nc(=O)n(-c3c(C)ccnc3C(C)C)c3nc(-c4c(O)cccc4F)c(F)cc23)C(C)C1 (stereo not drawn) + CNC(C)C(=O)NC1CN(S(=O)(=O)c2cccc(S(=O)(=O)N3CCC4CCC(C(=O)NC(c5ccccc5)c5ccccc5)N4C(=O)C(NC(=O)C(C)NC)C3)c2)CCC2CCC(C(=O)NC(c3ccccc3)c3ccccc3)N2C1=O	28.1

Now look at this one.
Checklist item: viability, T/C tested on HSSY-II complex spheroid growth, percent test/control, entry C=C(F)C(=O)N1CCN(c2nc(OCC3CCCN3C)nc3c2CCN(c2cccc4cccc(Cl)c24)C3)CC1CC#N (stereo not drawn) + CNC(C)C(=O)NC1CN(S(=O)(=O)c2cccc(S(=O)(=O)N3CCC4CCC(C(=O)NC(c5ccccc5)c5ccccc5)N4C(=O)C(NC(=O)C(C)NC)C3)c2)CCC2CCC(C(=O)NC(c3ccccc3)c3ccccc3)N2C1=O , value?
0.19
